Origin of the recorded values: patent US6403626B1

# Lookup of reported pKi keyed by entry
target under test: α1C Human Adrenergic Receptor (Homo sapiens, UniProt P35348)
Construct: expressed in transfected cells; host or cells: LM(tk-) cells
Sequence (P35348 1-466): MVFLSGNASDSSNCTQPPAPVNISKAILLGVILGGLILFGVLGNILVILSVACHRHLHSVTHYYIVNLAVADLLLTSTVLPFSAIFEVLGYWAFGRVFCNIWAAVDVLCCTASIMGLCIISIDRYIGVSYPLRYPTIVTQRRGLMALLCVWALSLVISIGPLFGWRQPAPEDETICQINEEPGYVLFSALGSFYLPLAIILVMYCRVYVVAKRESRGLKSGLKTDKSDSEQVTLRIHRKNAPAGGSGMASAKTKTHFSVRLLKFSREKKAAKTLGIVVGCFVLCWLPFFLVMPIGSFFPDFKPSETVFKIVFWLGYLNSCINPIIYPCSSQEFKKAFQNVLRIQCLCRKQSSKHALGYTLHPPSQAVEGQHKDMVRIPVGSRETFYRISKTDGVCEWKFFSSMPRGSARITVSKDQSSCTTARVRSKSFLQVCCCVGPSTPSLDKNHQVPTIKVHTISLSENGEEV
experimental protocol: Equilibrium competition binding, [3H] prazosin, membranes of transfected LM(tk-) cells
Procedure: Binding and functional assays were performed using stably transfected human alpha adrenergic receptors. […] Transfected cells from culture flasks were scraped into 5 ml of 5 mM Tris-HCl, 5 mM EDTA, pH 7.5, and lysed by sonication. […] Nonspecific binding was determined in the presence of 10 μM phentolamine. […]
pKi: −log10 of the molar value.

| molecule | pKi |
| --- | --- |
| Brc1c(NC2=NCCN2)ccc2ncn(CC3CCCCC3)c12 [Example 31] | 6.43 |
| OCCn1cnc2c(Br)c(NC3=NCCN3)ccc21 [Example 38] | 5.17 |
| c1ccc(Cn2cnc3ccc(NC4=NCCN4)cc32)cc1 [Example 34] | 5.87 |
| Brc1c(NC2=NCCN2)ccc2nc[nH]c12 [Example 2] | 5.77 |
| COc1ccc(Cn2cnc3c(Br)c(NC4=NCCN4)ccc32)cc1 [Example 36] | 5.19 |
| OCCn1cnc2ccc(NC3=NCCN3)c(Br)c21 [Example 39] | 5.32 |
| c1ccc(Cn2cnc3cc(NC4=NCCN4)ccc32)cc1 [Example 32] | 5.41 |
| Brc1c(NC2=NCCN2)ccc2ncn(C3CCCC3)c12 [Example 28] | 5.42 |
| Brc1c(NC2=NCCN2)ccc2ncn(Cc3ccccc3)c12 [Example 35] | 6.10 |
